Target: TNK1 (Homo sapiens, UniProt Q13470)
Assay: biochemical
Parameters: species or system HEK293/K-562/placenta mixed human extract; Kinobeads chemoproteomic competition binding, quantified by TMT LC-MS/MS, dose response up to 20 uM
pIC50: −log10 of the molar value.
metric: pIC50

sample.smiles | metric | assay.result
COc1ccccc1-c1n[nH]c2nc(N[C@H]3CC[C@H](NS(=O)(=O)CCC(F)(F)F)CC3)nc(OC)c12 | pIC50 | ≤ 4.70

---

Target: MAP3K11 (Homo sapiens, UniProt Q16584)
Sequence (Q16584 whole entry): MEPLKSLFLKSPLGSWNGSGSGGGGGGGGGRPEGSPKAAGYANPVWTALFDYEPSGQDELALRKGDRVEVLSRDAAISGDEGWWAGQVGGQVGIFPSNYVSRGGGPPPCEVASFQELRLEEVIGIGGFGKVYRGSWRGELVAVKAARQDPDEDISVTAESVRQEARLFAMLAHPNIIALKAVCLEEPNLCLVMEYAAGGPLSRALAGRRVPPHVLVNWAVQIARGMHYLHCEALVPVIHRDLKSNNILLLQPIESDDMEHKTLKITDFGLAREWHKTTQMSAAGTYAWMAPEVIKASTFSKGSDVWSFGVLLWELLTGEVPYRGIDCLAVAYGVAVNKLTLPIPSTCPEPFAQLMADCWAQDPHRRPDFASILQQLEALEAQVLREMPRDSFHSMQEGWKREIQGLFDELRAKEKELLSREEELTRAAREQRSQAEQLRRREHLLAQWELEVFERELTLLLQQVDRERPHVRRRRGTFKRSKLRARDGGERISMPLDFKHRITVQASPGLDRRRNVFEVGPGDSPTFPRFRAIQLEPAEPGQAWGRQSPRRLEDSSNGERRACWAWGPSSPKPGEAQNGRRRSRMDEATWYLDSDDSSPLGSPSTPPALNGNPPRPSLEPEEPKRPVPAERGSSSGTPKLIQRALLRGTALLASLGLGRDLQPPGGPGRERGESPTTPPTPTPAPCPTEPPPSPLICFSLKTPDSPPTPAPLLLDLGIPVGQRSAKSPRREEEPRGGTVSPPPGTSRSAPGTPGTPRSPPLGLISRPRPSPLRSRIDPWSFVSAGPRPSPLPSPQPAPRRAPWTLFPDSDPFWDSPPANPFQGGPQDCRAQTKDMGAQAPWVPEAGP
Test: biochemical
Set-up: species or system HEK293/K-562/placenta mixed human extract; Kinobeads chemoproteomic competition binding, quantified by TMT LC-MS/MS, dose response up to 20 uM
pIC50: −log10 of the molar value.

compound | pIC50
COc1ccccc1-c1n[nH]c2nc(N[C@H]3CC[C@H](NS(=O)(=O)CCC(F)(F)F)CC3)nc(OC)c12 [compound 31] | ≤ 4.70

---

Target: SLK (Homo sapiens)
Sequence (Q9H2G2 whole entry): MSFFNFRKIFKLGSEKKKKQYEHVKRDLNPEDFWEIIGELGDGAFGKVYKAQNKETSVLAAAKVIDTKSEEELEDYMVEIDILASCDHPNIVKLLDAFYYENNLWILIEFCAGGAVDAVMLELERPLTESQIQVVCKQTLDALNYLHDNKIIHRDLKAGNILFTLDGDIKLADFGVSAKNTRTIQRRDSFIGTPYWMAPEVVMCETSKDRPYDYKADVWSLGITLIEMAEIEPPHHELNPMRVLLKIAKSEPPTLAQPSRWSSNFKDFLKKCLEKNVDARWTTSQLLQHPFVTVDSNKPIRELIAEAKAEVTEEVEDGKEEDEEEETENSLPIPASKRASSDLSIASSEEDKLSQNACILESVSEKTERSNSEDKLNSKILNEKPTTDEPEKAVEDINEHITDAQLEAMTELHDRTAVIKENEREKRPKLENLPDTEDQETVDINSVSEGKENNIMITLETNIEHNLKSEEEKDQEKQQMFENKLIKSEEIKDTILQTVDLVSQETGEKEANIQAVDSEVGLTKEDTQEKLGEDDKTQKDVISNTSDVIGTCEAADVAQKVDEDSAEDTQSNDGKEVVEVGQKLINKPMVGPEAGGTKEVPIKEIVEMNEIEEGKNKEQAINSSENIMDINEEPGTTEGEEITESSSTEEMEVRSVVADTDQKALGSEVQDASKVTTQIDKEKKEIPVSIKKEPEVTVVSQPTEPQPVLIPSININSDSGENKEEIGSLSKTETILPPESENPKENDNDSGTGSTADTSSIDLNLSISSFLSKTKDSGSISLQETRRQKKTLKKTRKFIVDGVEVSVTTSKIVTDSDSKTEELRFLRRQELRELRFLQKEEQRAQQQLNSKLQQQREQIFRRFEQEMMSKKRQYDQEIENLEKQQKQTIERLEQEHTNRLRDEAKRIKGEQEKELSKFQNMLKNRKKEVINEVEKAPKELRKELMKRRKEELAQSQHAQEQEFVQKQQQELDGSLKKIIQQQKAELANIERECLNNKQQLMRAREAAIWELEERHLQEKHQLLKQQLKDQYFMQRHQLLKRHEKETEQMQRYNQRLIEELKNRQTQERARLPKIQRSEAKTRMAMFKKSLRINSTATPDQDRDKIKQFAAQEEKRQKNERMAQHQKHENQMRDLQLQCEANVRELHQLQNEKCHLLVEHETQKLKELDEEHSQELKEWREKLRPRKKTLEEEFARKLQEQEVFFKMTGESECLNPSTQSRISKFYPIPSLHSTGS
Assay: biochemical
Parameters: species or system HEK293/K-562/placenta mixed human extract; Kinobeads chemoproteomic competition binding, quantified by TMT LC-MS/MS, dose response up to 20 uM

sample.smiles | IC50
COc1nc(N[C@H]2CC[C@H](NS(=O)(=O)CC(C)C)CC2)nc2[nH]nc(N3CCOC[C@H]3C)c12 | ≥ 20 µM

---

Molecular target: UniProt:P61981
Sequence (P61981 whole entry): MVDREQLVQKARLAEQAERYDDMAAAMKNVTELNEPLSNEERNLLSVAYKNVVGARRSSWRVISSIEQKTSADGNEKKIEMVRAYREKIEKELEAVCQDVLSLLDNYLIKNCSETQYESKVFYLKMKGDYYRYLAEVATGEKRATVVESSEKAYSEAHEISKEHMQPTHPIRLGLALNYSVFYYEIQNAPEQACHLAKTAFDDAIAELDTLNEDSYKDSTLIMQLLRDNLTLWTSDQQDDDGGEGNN
Assay: biochemical
Set-up: species or system HEK293/K-562/placenta mixed human extract; Kinobeads chemoproteomic competition binding, quantified by TMT LC-MS/MS, dose response up to 20 uM
pIC50: −log10 of the molar value.
metric: pIC50

sample.smiles | assay.result
COc1ccccc1-c1n[nH]c2nc(N[C@H]3CC[C@H](NS(=O)(=O)CCC(F)(F)F)CC3)nc(OC)c12 | ≤ 4.70

---

Target: UniProt:Q6P5Z2
Sequence (Q6P5Z2 whole entry): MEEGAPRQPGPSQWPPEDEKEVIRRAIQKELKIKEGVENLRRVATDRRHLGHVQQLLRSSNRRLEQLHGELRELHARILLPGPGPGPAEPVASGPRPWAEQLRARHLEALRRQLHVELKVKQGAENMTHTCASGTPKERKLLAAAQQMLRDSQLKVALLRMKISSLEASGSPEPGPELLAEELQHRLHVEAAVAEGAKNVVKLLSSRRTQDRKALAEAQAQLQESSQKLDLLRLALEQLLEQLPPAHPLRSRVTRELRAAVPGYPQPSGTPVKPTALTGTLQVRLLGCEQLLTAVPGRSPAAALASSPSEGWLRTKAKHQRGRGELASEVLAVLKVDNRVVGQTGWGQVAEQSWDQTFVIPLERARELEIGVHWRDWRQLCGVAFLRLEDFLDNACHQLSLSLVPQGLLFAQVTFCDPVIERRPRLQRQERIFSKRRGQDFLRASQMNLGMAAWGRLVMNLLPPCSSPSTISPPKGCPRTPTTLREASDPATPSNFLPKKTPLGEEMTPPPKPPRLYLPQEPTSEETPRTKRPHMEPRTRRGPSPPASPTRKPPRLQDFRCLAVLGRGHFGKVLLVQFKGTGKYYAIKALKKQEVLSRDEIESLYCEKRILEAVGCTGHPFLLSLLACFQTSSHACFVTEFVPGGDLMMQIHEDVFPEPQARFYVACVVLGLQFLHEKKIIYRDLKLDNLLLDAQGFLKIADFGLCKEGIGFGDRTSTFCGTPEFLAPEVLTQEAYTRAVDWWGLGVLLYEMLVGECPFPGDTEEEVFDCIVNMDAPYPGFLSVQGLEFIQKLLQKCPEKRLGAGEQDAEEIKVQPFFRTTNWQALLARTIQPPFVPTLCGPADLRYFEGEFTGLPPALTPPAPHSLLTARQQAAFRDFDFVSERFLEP
Experiment: biochemical
Set-up: species or system HEK293/K-562/placenta mixed human extract; Kinobeads chemoproteomic competition binding, quantified by TMT LC-MS/MS, dose response up to 20 uM

sample.smiles | IC50
COc1nc(N[C@H]2CC[C@H](NS(=O)(=O)CC(C)C)CC2)nc2[nH]nc(N3CCOC[C@H]3C)c12 | ≥ 20 µM

---

Target: MAP3K5 (Homo sapiens)
Experiment: biochemical
Parameters: species or system HEK293/K-562/placenta mixed human extract; Kinobeads chemoproteomic competition binding, quantified by TMT LC-MS/MS, dose response up to 20 uM

compound | IC50
COc1nc(N[C@H]2CC[C@H](NS(=O)(=O)CC(C)C)CC2)nc2[nH]nc(N3CCOC[C@H]3C)c12 [compound 39] | ≥ 20 µM

---

Molecular target: MAP3K5 (Homo sapiens, UniProt Q99683)
Sequence (Q99683 whole entry): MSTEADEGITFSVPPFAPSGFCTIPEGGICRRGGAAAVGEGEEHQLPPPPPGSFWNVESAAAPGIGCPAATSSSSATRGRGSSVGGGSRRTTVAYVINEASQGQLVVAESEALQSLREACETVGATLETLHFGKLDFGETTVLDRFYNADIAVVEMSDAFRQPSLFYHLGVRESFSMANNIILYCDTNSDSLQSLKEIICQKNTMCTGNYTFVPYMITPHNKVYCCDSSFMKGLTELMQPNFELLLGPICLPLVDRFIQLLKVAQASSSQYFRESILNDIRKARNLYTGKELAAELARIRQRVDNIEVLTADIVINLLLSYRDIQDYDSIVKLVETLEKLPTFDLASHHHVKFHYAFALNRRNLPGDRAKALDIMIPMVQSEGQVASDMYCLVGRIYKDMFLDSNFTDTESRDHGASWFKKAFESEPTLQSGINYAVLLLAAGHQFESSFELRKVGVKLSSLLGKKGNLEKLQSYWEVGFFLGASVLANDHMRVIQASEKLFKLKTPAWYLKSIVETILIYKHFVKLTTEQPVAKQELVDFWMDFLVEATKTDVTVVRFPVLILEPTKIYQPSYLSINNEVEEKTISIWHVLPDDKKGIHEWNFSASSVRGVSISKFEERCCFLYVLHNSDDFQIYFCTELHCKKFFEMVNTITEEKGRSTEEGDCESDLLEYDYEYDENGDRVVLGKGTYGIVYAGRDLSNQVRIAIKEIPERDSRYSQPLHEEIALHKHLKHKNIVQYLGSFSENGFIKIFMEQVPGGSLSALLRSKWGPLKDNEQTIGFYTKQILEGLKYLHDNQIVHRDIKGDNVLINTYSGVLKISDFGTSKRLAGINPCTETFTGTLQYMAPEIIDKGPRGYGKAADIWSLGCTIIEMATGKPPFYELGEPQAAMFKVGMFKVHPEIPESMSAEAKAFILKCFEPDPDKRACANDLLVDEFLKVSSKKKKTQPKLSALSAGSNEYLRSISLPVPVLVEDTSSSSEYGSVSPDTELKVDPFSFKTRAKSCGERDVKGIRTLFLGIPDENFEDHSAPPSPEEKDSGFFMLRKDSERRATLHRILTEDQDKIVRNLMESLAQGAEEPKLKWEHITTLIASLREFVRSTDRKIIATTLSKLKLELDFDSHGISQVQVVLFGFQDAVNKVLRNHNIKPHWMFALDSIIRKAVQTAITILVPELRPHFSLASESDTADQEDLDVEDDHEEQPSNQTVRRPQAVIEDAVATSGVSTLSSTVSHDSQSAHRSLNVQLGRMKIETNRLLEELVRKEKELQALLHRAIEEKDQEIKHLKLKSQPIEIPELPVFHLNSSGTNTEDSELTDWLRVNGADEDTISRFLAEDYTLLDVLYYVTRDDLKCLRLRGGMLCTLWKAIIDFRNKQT
Assay: biochemical
Set-up: species or system HEK293/K-562/placenta mixed human extract; Kinobeads chemoproteomic competition binding, quantified by TMT LC-MS/MS, dose response up to 20 uM
metric: IC50

compound | assay.result
COc1ccccc1-c1n[nH]c2nc(N[C@H]3CC[C@H](NS(=O)(=O)CCC(F)(F)F)CC3)nc(OC)c12 [compound 31] | ≥ 20 µM

---

Target: mTOR (Homo sapiens)
Test: biochemical
Parameters: species or system HEK293/K-562/placenta mixed human extract; Kinobeads chemoproteomic competition binding, quantified by TMT LC-MS/MS, dose response up to 20 uM
pIC50: −log10 of the molar value.

sample.smiles | pIC50
COc1nc(N[C@H]2CC[C@H](NS(=O)(=O)CC(C)C)CC2)nc2[nH]nc(N3CCOC[C@H]3C)c12 | ≤ 4.70
